B1: Osa-1-4 twister ribozyme (parent)
chain: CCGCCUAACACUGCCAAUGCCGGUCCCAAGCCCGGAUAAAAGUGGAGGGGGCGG

Variants of: B1
Assay: self-cleavage, relative activity (ratio to wild type); higher = more cleavage; co-transcriptional
// values below are reported self-cleavage
valueKind: self-cleavage

| macromoleculeSequence | recordedNumber |
| --- | --- |
| CCGCCUAACACUGCCAAUGCCGGUCCCAAGCCCGGAUAGAAGUGGAGGGGGGGG [A39G C52G] | 0.98 |
| CCGCCUAACACUGCCAAUGCCGGUCCAAAGACCGGAUAAAAGUGGAGGGGGCGG [C27A C31A] | 0.06 |
| CCGCCUAACACUGUCAAUGCCGGUCCCAAGCCCGGAUAAAAGUGGAGCGGGCGG [C14U G48C] | 0.05 |
| CCGCCUAACACUGCCAAUGCCGGUCCCAAGCCCCGAUAAAAGUGGAUGGGGCGG [G34C G47U] | 0.06 |
| CCGCCUAUCACUGCCAAUGCCGGUCCCAAGCCCGGAUAAAAGUGGAGGGGACGG [A8U G51A] | 0.14 |
| CCGCCUAACACUGCUAAUGCCGGUCCCAAUCCCGGAUAAAAGUGGAGGGGGCGG [C15U G30U] | 0.03 |
| CCGCCUAACACUGCCAAUGCUGGUCCCAAGCCCGGAUAAAAGUGUAGGGGGCGG [C21U G45U] | 0.11 |
| CCGCCUAACACUGCCAAUGCCGGUCCCAAGCCCGGAUAAAAGUGUAUGGGGCGG [G45U G47U] | 0.06 |
| CCGCCUAACACUGCAAAUGACGGUCCCAAGCCCGGAUAAAAGUGGAGGGGGCGG [C15A C20A] | 0.52 |
| CCGCCUAACACUGUCAGUGCCGGUCCCAAGCCCGGAUAAAAGUGGAGGGGGCGG [A17G C14U] | 0.69 |
| CCGCCUAACCCUGCCAAUGCCGGUCCCAAGCCCGGAUAAAAGUGGAGGGGGGGG [A10C C52G] | 0.11 |
| CCGCCUAACACUGCCAAUGCCGGUCCCAGGCCCGGAUAAGAGUGGAGGGGGCGG [A29G A40G] | 0.07 |
| CCGCCUAACAGUGCCAAUGCCGGUCCCAAGCCCGGAUUAAAGUGGAGGGGGCGG [A38U C11G] | 0.59 |
| CCGCCUAUCACUGCCAAUGCCGGUCCCAAGCCCGGAUAAAAGUGGAGGGGGCCG [A8U G53C] | 0.05 |
| CCGCCUAACACUGCCAAUGCCGGUCCUAAUCCCGGAUAAAAGUGGAGGGGGCGG [C27U G30U] | 0.05 |
| CCGCCUAACUCUGCCAAUGCCGGUCCCAAGCCCGGAUAAAAGUGGAGGCGGCGG [A10U G49C] | 0.01 |
| CCGCCUUACACUGCCGAUGCCGGUCCCAAGCCCGGAUAAAAGUGGAGGGGGCGG [A16G A7U] | 0.13 |
| CCGCCUAACACUGUCAAUGCCGGACCCAAGCCCGGAUAAAAGUGGAGGGGGCGG [C14U U24A] | 0.04 |
| CCGCCUAACACUGCUAAUGCCGGUCCUAAGCCCGGAUAAAAGUGGAGGGGGCGG [C15U C27U] | 0.08 |
| CCGCCUAACACUGCCAAUGGCGGUCCCAAGCCCGGAUAAAAGUUGAGGGGGCGG [C20G G44U] | 0.07 |
| CCGCCUAACACUGCCAAUGCCGGUCCCAAGCCCGUAUAAAAGUGGAGGGGGUGG [C52U G35U] | 0.99 |
| CCGCCUAACACUGCCAAUGCCGGUCCCAAUCCCGGAUAAAAGUGUAGGGGGCGG [G30U G45U] | 0.02 |
| CCGCCUAACACUGCCAAUGCCGGUUCCAACCCCGGAUAAAAGUGGAGGGGGCGG [C25U G30C] | 0.03 |
| CCGCCUAACACUGCCAAUGCCGGUCCGAAGCACGGAUAAAAGUGGAGGGGGCGG [C27G C32A] | 0.02 |
| CCGCCUAACACUGCCAAUGCCGGUCCCAAGCCCGUAUAAAAGUGGAGGGGCCGG [G35U G51C] | 0.06 |
| CCGCCUAACACUGCCAAUGCCGGUCCCAAGCACGGAUAUAAGUGGAGGGGGCGG [A39U C32A] | 0.08 |
| CCGCCUAACACUCCCAAUGACGGUCCCAAGCCCGGAUAAAAGUGGAGGGGGCGG [C20A G13C] | 0.01 |
| CCGCCUAACACUGCCAUUGCCGGUCCCACGCCCGGAUAAAAGUGGAGGGGGCGG [A17U A29C] | 0.05 |
| CCGCCUAACACUGCCAAUGCCUGUCCCAAGCCCGGUUAAAAGUGGAGGGGGCGG [A36U G22U] | 0.9 |
| CCGCCUAACACUGCCAAUGCCGGUCCCAAGCCCGGAUAAAAGUGGAUGGGGGGG [C52G G47U] | 0.29 |
| CCGCCUAACACUGCCAAUGCCGGUCCCAAGCCCGGAUAAAAGUGGAUGGGCCGG [G47U G51C] | 0.05 |
| CCGCCUAACACAGCCAAUGCUGGUCCCAAGCCCGGAUAAAAGUGGAGGGGGCGG [C21U U12A] | 0.73 |
| CCGCCUAACACUGCCAAUGCCGGUCCCAAGCCCGGAAAAUAGUGGAGGGGGCGG [A40U U37A] | 0.87 |
| CCGCCUAACAAUGCCAAUGCCGGCCCCAAGCCCGGAUAAAAGUGGAGGGGGCGG [C11A U24C] | 0.06 |
| CCGCCUAACACUGCCAAUGCCGGUCCUAAGCCCGGAUACAAGUGGAGGGGGCGG [A39C C27U] | 0.09 |
| CCGCCUAACACUGCCAAUGCCGGUCCCAAGCCCGGAUAAAAUUGGAUGGGGCGG [G42U G47U] | 0.03 |
| CCGCCUAACACUGCCACUGCCGGUCCCAAUCCCGGAUAAAAGUGGAGGGGGCGG [A17C G30U] | 0.03 |
| CCGCCUCACACUGCCAAUGCCGGUCCCACGCCCGGAUAAAAGUGGAGGGGGCGG [A29C A7C] | 0.03 |
| CCGCCUGACACUGCCAAUGCCGGUCCCAAGCCCGGAUAAAAGUUGAGGGGGCGG [A7G G44U] | 0.15 |
| CCGCCUAACACUGCCAACGCCGGUCCCAAGCCCGGAUAGAAGUGGAGGGGGCGG [A39G U18C] | 0.96 |
| CCGCCUAACACUCCCAAUGCCGGUCCCAAGCCCGGAUAAAAGUGGAGGGGGCUG [G13C G53U] | 0.02 |
| CCGCCUGACACUGCCAAUGCCGGUCCCAAGCCCGGAUCAAAGUGGAGGGGGCGG [A38C A7G] | 0.22 |
| CCGCCUAACACUGCCAAUGCCGGUCCCAAGCCCGAAUAAAAGUGGACGGGGCGG [G35A G47C] | 0.11 |
| CCGCCUAACACUGCCUAUACCGGUCCCAAGCCCGGAUAAAAGUGGAGGGGGCGG [A16U G19A] | 0.89 |
| CCGCCUAACACUGCCAAUGCCGGUCCCAAGCCCGGAUAAAAGUGGGCGGGGCGG [A46G G47C] | 0.03 |
| CCGCCUAACACUGCCAAAGCCGGUCCCAAGCCCGGAUAAAAGUGGAGGGGGCGG [U18A] | 0.95 |
| CCGCCUAACACUGCCAAUGCCGGUUCCAAGCCCGGAUAACAGUGGAGGGGGCGG [A40C C25U] | 0.04 |
| CCGCCUAACACUGCCAAUGCCGGUCCCAAGCCCGGAUAAAAGUGGAGUGGGCGC [G48U G54C] | 0.1 |
| CCGCCUAACACUGCCAAUGCCGGUCCCAAGCCCGGAUAAUAGCGGAGGGGGCGG [A40U U43C] | 0.13 |
| CCGCCUAACACUGCCAAGGCCGGUCCCAAGCCCGGAUAAAAGCGGAGGGGGCGG [U18G U43C] | 0.67 |
| CCGCCUAACACUGCCAAUGCCGGUCUCAAGCCCGGAUAACAGUGGAGGGGGCGG [A40C C26U] | 0.04 |
| CCGCCUGACACUGCCAAUGCCGGUCUCAAGCCCGGAUAAAAGUGGAGGGGGCGG [A7G C26U] | 0.13 |
| CCGCCUAACACUGCAAAUGCCGGUCCGAAGCCCGGAUAAAAGUGGAGGGGGCGG [C15A C27G] | 0.04 |
| CCGCCUACCACUGCCAAUGCCGGUCCCAAGCCGGGAUAAAAGUGGAGGGGGCGG [A8C C33G] | 0.03 |
| CCGCCUAACGCUGCCUAUGCCGGUCCCAAGCCCGGAUAAAAGUGGAGGGGGCGG [A10G A16U] | 0.61 |
| CCGCCUAACACUGCCAAUGCCGGUCCCGAGCCCGGAUAAAAGUGGAGGGGUCGG [A28G G51U] | 0.06 |
| CCGCCUAACACUGCGAAUGCCGGUGCCAAGCCCGGAUAAAAGUGGAGGGGGCGG [C15G C25G] | 0.07 |
| CCGCCUAGAACUGCCAAUGCCGGUCCCAAGCCCGGAUAAAAGUGGAGGGGGCGG [A8G C9A] | 0.13 |
| CCGCCUAACACUGCCAACGCCGGUCCCAAGCCCGGAUAAAAGUGGAAGGGGCGG [G47A U18C] | 0.22 |
| CCGCCUAACACUGCCAAUGCCGGUACCAAGCCCGGAUAAAAGUUGAGGGGGCGG [C25A G44U] | 0.06 |
| CCGCCUAACACUGACAAUGCCGGUCCCAAGCCCCGAUAAAAGUGGAGGGGGCGG [C14A G34C] | 0.05 |
| CCGCCUAACACUGCCAAUGCCGGUCCCAACCCCGGAUAAAAGUGGAGGGCGCGG [G30C G50C] | 0.05 |
| CCGCCUAACACUGCCAAUGCCGGUCCCAAGCCCGGAUAAAAGUGUAGGGGUCGG [G45U G51U] | 0.05 |
| CCGCCUAACACGGCCAACGCCGGUCCCAAGCCCGGAUAAAAGUGGAGGGGGCGG [U12G U18C] | 0.28 |
| CCGCCUAACACCGCCAAUGCCGGUCCCAAGUCCGGAUAAAAGUGGAGGGGGCGG [C31U U12C] | 0.11 |
| CCGCCUAACACUGCGAAUGCCGGUCCCAAGCCCGGAUAGAAGUGGAGGGGGCGG [A39G C15G] | 0.31 |
| CCGCCUAACACUGCCCAUGCCGGUCCCAAGCCCGGAUAAAAAUGGAGGGGGCGG [A16C G42A] | 0.6 |
| CCGCCUUACACAGCCAAUGCCGGUCCCAAGCCCGGAUAAAAGUGGAGGGGGCGG [A7U U12A] | 0.09 |
| CCGCCUAACACUGCCAAUGCCGGUUCCAAGCCCGGAUAAAAGUGGAGGGGGCGG [C25U] | 0.93 |
| CCGCCUAACACUGCGAAUGCCGGUCCCAAGCCCGGAUAAAAGUGGAGGGGGCGU [C15G G54U] | 0.35 |
| CCGCCUAACACUGCCAAUGCCGGUCCAAAGCCCGGAUAAAAGUGGAGGGGGCCG [C27A G53C] | 0.05 |
| CCGCCUAACACUGCCGAUGCCGGUCCCAAGCCCGGAUAAAAGUGGAGUGGGCGG [A16G G48U] | 0.1 |
| CCGCCUAAUACUGCCAAUGCCGGUCCCAAGCCAGGAUAAAAGUGGAGGGGGCGG [C33A C9U] | 0.07 |
| CCGCCUAACACUGCCAAUGCCGGUCCCAAGCCCGGAUAAAAGUGCAGGGGCCGG [G45C G51C] | 0.05 |
| CCGCCUAACACUGCCAAUGCCGGUCCCAAGCGCGGAUAAAAGUGGAGGGGACGG [C32G G51A] | 0.09 |
| CCGCCUAACACUGCCAAUGCCCGUCCCAAGACCGGAUAAAAGUGGAGGGGGCGG [C31A G22C] | 0.02 |
| CCGCCUAACACUGCCAUUGCCGGUCCCAAGCCCGGAGAAAAGUGGAGGGGGCGG [A17U U37G] | 1.01 |
| CCGCCUAGCACUGCCAAUUCCGGUCCCAAGCCCGGAUAAAAGUGGAGGGGGCGG [A8G G19U] | 0.1 |
| CCGCCUAACACAGCCAAUGCCGAUCCCAAGCCCGGAUAAAAGUGGAGGGGGCGG [G23A U12A] | 0.1 |
| CCGCCUAACACUGCCAAUGCCGGUCCCAAGCCGGGAUAAAAGUGGACGGGGCGG [C33G G47C] | 0.03 |
| CCGCCUAACACUGCCAAUGCCGGUCCCAUGCCCGGAUAAAAGUGGAGGGUGCGG [A29U G50U] | 0.09 |
| CCGCCUAACAGUGCCAAUGCCUGUCCCAAGCCCGGAUAAAAGUGGAGGGGGCGG [C11G G22U] | 0.03 |
| CCGCCUAACACUGCGAAUGCCGGUCCCAAGCCCGGAUAAAAGUGGAGUGGGCGG [C15G G48U] | 0.04 |
| CCGCCUAACACUGCCAAUGCGGGUCCCAAGCUCGGAUAAAAGUGGAGGGGGCGG [C21G C32U] | 0.02 |
| CCGCCUAACACUGCCAAUGCCGGUCCCAAGCUCGGAUUAAAGUGGAGGGGGCGG [A38U C32U] | 0.11 |
| CCGCCUAACACUGCCAAUGCCGGUCCCAAGCGCGGAUACAAGUGGAGGGGGCGG [A39C C32G] | 0.1 |
| CCGCCUAGCACUGCCCAUGCCGGUCCCAAGCCCGGAUAAAAGUGGAGGGGGCGG [A16C A8G] | 0.36 |
| CCGCCUAACACUGCCAAUCCAGGUCCCAAGCCCGGAUAAAAGUGGAGGGGGCGG [C21A G19C] | 0.03 |
| CCGCCUAACACUGCCAAGGCCGGUCCCAGGCCCGGAUAAAAGUGGAGGGGGCGG [A29G U18G] | 0.34 |
| CCGCCUAACACUAGCAAUGCCGGUCCCAAGCCCGGAUAAAAGUGGAGGGGGCGG [C14G G13A] | 0.07 |
| CCGCCUAACACUGCCAAAGCCGGUCACAAGCCCGGAUAAAAGUGGAGGGGGCGG [C26A U18A] | 0.05 |

Each recorded value in this set is attributed to the RNAGym collection of RNA variant scans (doi:10.1002/anie.201605470).
